# Activity per entry
Target: Protein cereblon (Homo sapiens) (UniProt Q96SW2)
Sequence (Q96SW2 whole entry): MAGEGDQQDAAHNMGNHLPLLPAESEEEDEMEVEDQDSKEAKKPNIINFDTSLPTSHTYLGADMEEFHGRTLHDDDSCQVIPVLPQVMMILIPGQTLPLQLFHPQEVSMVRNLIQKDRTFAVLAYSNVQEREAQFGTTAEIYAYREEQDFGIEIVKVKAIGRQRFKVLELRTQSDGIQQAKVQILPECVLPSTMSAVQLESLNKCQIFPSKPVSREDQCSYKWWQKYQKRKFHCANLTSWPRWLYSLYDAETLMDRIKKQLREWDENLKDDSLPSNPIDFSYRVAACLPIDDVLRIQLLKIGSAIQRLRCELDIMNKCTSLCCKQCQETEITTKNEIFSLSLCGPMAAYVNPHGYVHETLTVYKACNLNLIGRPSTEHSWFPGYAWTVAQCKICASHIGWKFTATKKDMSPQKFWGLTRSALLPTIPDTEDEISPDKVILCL
Test: Binding affinity to CRBN (unknown origin) at 10 uM relative to control

Example results:
CNC(=O)c1nc(NC(=O)Cn2cnc(C)c(C)c2=O)sc1CCc1ccccc1 :: -9%
COC(=O)c1nc(NC(=O)Cn2cnc3c(c2=O)CCC3)sc1CCc1ccccc1 :: -14.4%
COC(=O)c1nc(NC(=O)Cn2cnccc2=O)sc1CCc1ccccc1 :: 13.8%

Now look at this entry.
Request: Could you tell me which Activity is on file for COC(=O)c1nc(NC(=O)Cn2cnc(C)c(C)c2=O)sc1Cc1ccccc1 ?
Result: -5.6%

###

Molecular target: Protein cereblon/Eukaryotic peptide chain release factor GTP-binding subunit ERF3A (Homo sapiens, UniProt Q96SW2+P15170)
Sequence (P15170 whole entry, one chain of several): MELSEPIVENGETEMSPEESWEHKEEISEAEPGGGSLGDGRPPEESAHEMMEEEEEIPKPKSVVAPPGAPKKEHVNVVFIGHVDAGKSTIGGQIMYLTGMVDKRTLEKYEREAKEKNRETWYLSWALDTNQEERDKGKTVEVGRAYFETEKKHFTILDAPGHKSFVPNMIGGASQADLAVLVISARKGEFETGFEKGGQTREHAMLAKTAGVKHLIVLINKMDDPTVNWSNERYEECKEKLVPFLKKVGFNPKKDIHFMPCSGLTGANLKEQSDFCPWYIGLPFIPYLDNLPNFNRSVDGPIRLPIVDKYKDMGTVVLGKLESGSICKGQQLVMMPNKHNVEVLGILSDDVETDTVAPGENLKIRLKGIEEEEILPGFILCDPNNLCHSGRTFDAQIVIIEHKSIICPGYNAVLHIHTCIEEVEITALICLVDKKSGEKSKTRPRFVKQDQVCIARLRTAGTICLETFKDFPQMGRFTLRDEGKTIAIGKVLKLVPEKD
Test: Molecular glue activity at human full length wild type CRBN/Hibit tagged GSPT1 in human Jurkat cells assessed as induction of GSPT1 degradation
Type: cell-based
quantity: DC50

Example results:
COC(=O)c1nc(NC(=O)Cn2cnc(C)c(C)c2=O)sc1CCc1cccc(Cl)c1 :: > 10 µM
COC(=O)c1nc(NC(=O)Cn2cnc(C)c(C)c2=O)sc1CCc1ccc(Cl)cc1 :: > 10 µM
COC(=O)c1nc(NC(=O)Cn2cnc(C)cc2=O)sc1CCc1ccccc1 :: > 10 µM

Now look at this entry.
Request: Could you tell me which DC50 is on file for COC(=O)c1nc(NC(=O)Cn2cnc(C)c(C)c2=O)sc1Cc1ccccc1 ?
Result: > 10 µM

###

Biological target: Protein cereblon (Homo sapiens) (UniProt Q96SW2)
Experiment: Binding affinity to CRBN (unknown origin) at 10 uM relative to control
Activity calls are given as the source filed them. The calls are words filed in the database; no cut-off is given here.
quantity: Activity

COC(=O)c1nc(NC(=O)Cn2cnc(C)cc2=O)sc1CCc1ccccc1 :: inactive
COC(=O)c1nc(NC(=O)Cn2cnc(C)c(C)c2=O)sc1CCc1ccc(Cl)cc1 :: inactive
COC(=O)c1nc(NC(=O)Cn2cnc(C)c(C)c2=O)sc1CCc1ccccc1 :: 47.6%
COC(=O)c1nc(NC(=O)Cn2cnc(C)c(C)c2=O)sc1CCc1cccc(Cl)c1 :: inactive

###

Assay: Cytotoxicity against HEK293T cells assessed as cell growth inhibition measured after 72 hrs by CellTiter-Glo assay
Type: toxicity, cell-based, HEK-293T
Conditions: human
quantity: GI50 at 72 h (nM)
// return numeric value only (unit: nM, not printed)

Request: Could you tell me which GI50 at 72 h is on file for COC(=O)c1nc(NC(=O)Cn2cnc(C)c(C)c2=O)sc1CCc1ccccc1 ?
Result: 800

###

Biological target: Protein cereblon/Eukaryotic peptide chain release factor GTP-binding subunit ERF3A (Homo sapiens, UniProt P15170+Q96SW2)
Sequence (P15170 whole entry, one chain of several): as the sequence (P15170 whole entry, one chain of several) above
Test: Molecular glue activity at LgBiT tagged CRBN/SmBiT tagged GSPT1 (unknown origin) transfected with HEK293T cells assessed as ternary complex formation incubated for 1 hr by Nano-Glo luminescence analysis
pEC50: −log10 of the molar value.
quantity: pEC50

1. Cc1ccc(NC(=O)NCc2ccc3c(c2)CN(C2CCC(=O)NC2=O)C3=O)cc1Cl (configuration not stated)
2. COC(=O)c1nc(NC(=O)Cn2cnc(C)c(C)c2=O)sc1CCc1ccccc1
Request: Sort 1 and 2 by pEC50 descending and give the first. Refer to your chosen entry by its label in the reply.
Result: 1
